experimentDescription: Mouse 6-hour PK study; also: test concentration or dose not given here
measurementConditions: mouse, in vivo
endpointLabel: Cmax

Example results:
smilesString: Cc1cccc(F)c(=O)c1O
Cmax: 5000 to 20000 ng/mL
--
smilesString: O=c1ccccc(OC2CC3(CC3)C2)c1O
Cmax: < 499 ng/mL

Proceed to the following item.
Given the entry Cc1cc(C(C)C)ccc(O)c1=O , report its measured Cmax. < 499 ng/mL

The measured values listed here are drawn from patent US20230406803A1.
